Outcome Measure: glass transition temperature (°C)

# Compound, glass transition temperature, °C
measured = [
    ("*CC(C)(C)COC(=O)c1ccc(C(=O)O*)cc1 (repeat unit)", 68.00),
]

P: *Oc1c(Cl)cc(C(c2cc(Cl)c(OC(*)=O)c(Cl)c2)C(Cl)(Cl)Cl)cc1Cl (repeat unit)
Q: */C=C/C1CC(*)C(C#N)(C[Si](C)(C)O[Si](C)(C)C)C1 (repeat unit)
R: *CCCCCCNC(=O)CCCCCCCCC(=O)N* (repeat unit) [Poly(hexamethylene sebacamide) ]
QUERY: Ascending by glass transition temperature, please: list the compounds accordingly. Thanks in advance for listing the labels in the requested order.
RESULT: R, Q, P
(R: 40 °C, Q: 68.00 °C, P: 273.00 °C)

a: */C(=C/c1cc(OC)c(/C=C(\c2ccc(F)cc2)c2ccc(-c3ccc(*)cc3)cc2)cc1OC)c1ccc(F)cc1 (repeat unit)
b: *Oc1ccc(S(=O)(=O)c2ccc(Oc3ccc(C4(c5ccc(*)cc5)C5CC6CC(C5)CC4C6)cc3)cc2)cc1 (repeat unit)
QUERY: Looking at a and b , which one comes out lower in glass transition temperature terms? Write down the label attached to your selection.
RESULT: a

I: *c1cccc(C(=O)c2cccc(-n3c(=O)c4cc5c(=O)n(*)c(=O)c5cc4c3=O)c2)c1 (repeat unit)
II: *Nc1cc(NC(=O)c2cc(OCCN(C)c3ccc([N+](=O)[O-])cc3)cc(C(*)=O)c2)cc(C(=O)OC)c1 (repeat unit)
III: *CNC(=O)OCCOC(=O)NCc1ccc(C(C)(C)c2ccc(*)o2)o1 (repeat unit)
IV: *c1ccc(/C=C/c2cc(OCCCCCCCC)c(/C=C/c3ccc(N(*)c4ccccc4)cc3)cc2OCCCCCCCC)cc1 (repeat unit)
QUERY: Output the entries ranked by glass transition temperature from maximum down to minimum. Thanks in advance for listing the labels in the requested order.
RESULT: I, II, IV, III
(I: 321.00 °C, II: 177.00 °C, IV: 74.00 °C, III: 50.00 °C)

a: *c1cccc(N2C(=O)c3cccc(Oc4ccc(S(=O)(=O)c5ccc(Oc6cccc7c6C(=O)N(*)C7=O)cc5)cc4)c3C2=O)c1 (repeat unit)
b: *CCCCOC(=O)Nc1ccc(C)c(NC(=O)O*)c1 (repeat unit)
QUERY: Looking at a and b , which one comes out lower in glass transition temperature terms? Write down the label attached to your selection.
RESULT: b
(b: 42.00 °C, a: 266.00 °C)

a: *Cc1ccc2oc(=O)c(C(=O)Nc3ccc(C(c4ccc(NC(=O)c5cc6cc(*)ccc6oc5=O)cc4)(C(F)(F)F)C(F)(F)F)cc3)cc2c1 (repeat unit)
b: *OC(=O)Nc1ccc(Cc2ccc(NC(=O)OC3CC4CC(*)CC(C3)O4)cc2)cc1 (repeat unit)
QUERY: Larger number for glass transition temperature: a , or b ? Write down the label attached to your selection.
RESULT: a

* * *

Outcome Measure: glass transition temperature (°C)

Sample answers from the record:
# Molecule, Reported Result
rows = [
    ("*C[Si](*)(CCC)CCC (repeat unit)", -41.00),
    ("*CC(O)C(O)COC(=O)O* (repeat unit)", 39.60),
    ("*CC(O)CN(CC(O)COc1ccc(C(C)(C)c2ccc(O*)cc2)cc1)c1ccc(C#N)cc1 (repeat unit)", 100.00),
    ("*CC(*)C(=O)O (repeat unit) [Poly(acrylic acid)]", 105),
    ("*Oc1ccc(S(=O)(=O)c2ccc(Oc3ccc(C(C)(c4ccccc4)c4ccc(*)cc4)cc3)cc2)cc1 (repeat unit)", 207.00),
    ("*CC(*)(C)C(=O)OCCCCCC(=O)Oc1ccc(OC(=O)c2ccc(OCCCC)cc2)cc1 (repeat unit)", 40.00),
    ("*c1ccc(Sc2cc3c(cc2Sc2ccc(N4C(=O)c5ccc(Oc6ccc7c(c6)C(=O)N(*)C7=O)cc5C4=O)cc2)C(=O)N(CCc2ccccc2)C3=O)cc1 (repeat unit)", 218.00),
    ("*CC(*)(C)C(=O)Oc1ccc(C(=O)c2ccccc2)cc1 (repeat unit)", 118.00),
]

a: *OC(=O)C(Cc1ccccc1)NC(=O)CCCCC(=O)NC(Cc1ccccc1)C(=O)OC1COC2C(*)COC12 (repeat unit)
b: *Oc1ccc(S(=O)(=O)c2ccc(Oc3ccc(C4(c5ccc(Oc6ccc(S(=O)(=O)c7ccc(Oc8ccc(/C=C9\CCCC/C(=C\c%10ccc(*)cc%10)C9=O)cc8)cc7)cc6)cc5)CCCCCC4)cc3)cc2)cc1 (repeat unit)
c: *CC(*)c1ccc(C(O)CCN2CCOCC2)cc1 (repeat unit)
d: *CC(*)(C)C(=O)OCc1ccc(OCCOCCOCC)c(OCCOCCOCC)c1 (repeat unit)
e: *C(=O)Nc1ccc(NC(=O)c2ccc3[nH]c(-c4cc(-c5nc6cc(*)ccc6[nH]5)cc(N5C(=O)c6ccccc6C5=O)c4)nc3c2)cc1 (repeat unit)
QUERY: Ascending by glass transition temperature, please: list the molecules accordingly. Thanks in advance for listing the labels in the requested order.
RESULT: d, c, a, b, e
(d: -33.00 °C, c: 50.00 °C, a: 97.50 °C, b: 196.00 °C, e: 295.00 °C)
